# EXPERIMENTAL_SYSTEM: T1, human IL-18BP-His (human, UniProt O95998 31-194, limits assumed)
# T1 construct: also called His-tagged human IL-18BP; not shown: His tag
# T1 sequence (looked up): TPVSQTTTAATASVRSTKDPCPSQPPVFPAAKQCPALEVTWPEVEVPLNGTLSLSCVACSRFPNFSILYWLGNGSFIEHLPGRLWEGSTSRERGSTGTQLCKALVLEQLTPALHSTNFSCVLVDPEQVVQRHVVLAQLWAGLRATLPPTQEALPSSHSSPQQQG
# ASSAY_INFO: AlphaLISA of free IL-18BP
EXPERIMENTAL_ENDPOINT: pKd
pKd is a log-scale quantity: -log10 of the concentration expressed in molar.

Previously resolved entries follow.
>>> assay_value("IL-18 polypeptide C184 (ligand, also called E6R, V11I, C38A, K53A, T63A, C76A, C127A) YFGKLRSKLSIIRNLNDQVLFIDQGNRPLFEDMTDSDARDNAPRTIFIISMYADSQPRGMAVAISVKCEKISTLSAENKIISFKEMNPPDNIKDTKSDIIFFQRSVPGHDNKMQFESSSYEGYFLAAEKERDLFKLILKKEDELGDRSIMFTVQNED")
8.26
>>> assay_value("IL-18 polypeptide of SEQ ID NO: 55 (K53A, T63A, C38S, C68S, C76S, C127S, K70C) (ligand) YFGKLESKLSVIRNLNDQVLFIDQGNRPLFEDMTDSDSRDNAPRTIFIISMYADSQPRGMAVAISVKSECISTLSSENKIISFKEMNPPDNIKDTKSDIIFFQRSVPGHDNKMQFESSSYEGYFLASEKERDLFKLILKKEDELGDRSIMFTVQNED")
6.04
>>> assay_value("IL-18 polypeptide C168 (ligand, also called V11I, C38A, C76A, S105K, C127A) YFGKLESKLSIIRNLNDQVLFIDQGNRPLFEDMTDSDARDNAPRTIFIISMYKDSQPRGMAVTISVKCEKISTLSAENKIISFKEMNPPDNIKDTKSDIIFFQRKVPGHDNKMQFESSSYEGYFLAAEKERDLFKLILKKEDELGDRSIMFTVQNED")
10.30

Name the recorded pKd for IL-18 polypeptide C148 (ligand, also called F2A, V11I, C38A, K53A, C76A, C127A) YAGKLESKLSIIRNLNDQVLFIDQGNRPLFEDMTDSDARDNAPRTIFIISMYADSQPRGMAVTISVKCEKISTLSAENKIISFKEMNPPDNIKDTKSDIIFFQRSVPGHDNKMQFESSSYEGYFLAAEKERDLFKLILKKEDELGDRSIMFTVQNED .
7.24

Name the recorded pKd for IL-18 polypeptide C165 (ligand, also called V11I, C38A, S55R, C76A, C127A) YFGKLESKLSIIRNLNDQVLFIDQGNRPLFEDMTDSDARDNAPRTIFIISMYKDRQPRGMAVTISVKCEKISTLSAENKIISFKEMNPPDNIKDTKSDIIFFQRSVPGHDNKMQFESSSYEGYFLAAEKERDLFKLILKKEDELGDRSIMFTVQNED .
9.82

Name the recorded pKd for IL-18 polypeptide C146 (SEQ ID NO: 68) (ligand, also called V11I, C38A, M51G, K53A, C76A, C127A) YFGKLESKLSIIRNLNDQVLFIDQGNRPLFEDMTDSDARDNAPRTIFIISGYADSQPRGMAVTISVKCEKISTLSAENKIISFKEMNPPDNIKDTKSDIIFFQRSVPGHDNKMQFESSSYEGYFLAAEKERDLFKLILKKEDELGDRSIMFTVQNED .
6.43

Name the recorded pKd for IL-18 polypeptide C144 (ligand, also called V11I, C38A, K53A, T63A, C76A, C127A) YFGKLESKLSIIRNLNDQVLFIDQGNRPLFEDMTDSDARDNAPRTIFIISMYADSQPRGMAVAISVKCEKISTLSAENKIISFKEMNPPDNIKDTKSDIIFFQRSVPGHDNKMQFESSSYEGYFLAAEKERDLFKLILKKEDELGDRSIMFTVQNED .
9.18
